Collected selectivity ratio values appear next to each entry.
Assay: in vitro
Conditions: human, MT4 cells; MT4 cells infected with HIV1 3B
Description: Selectivity index, ratio of CC50 for cytotoxicity against human MT4 cells to EC50 for antiviral activity against HIV1 3B infected in human MT4 cells

Reference set (3 entries):
> print(dat)
                                   compound  result
1  COc1cc2nc(SCC(=O)Nc3ccc(C#N)cc3)nc(Nc3c(C)cc(/C=C/C#N)cc3C)c2cc1OC   > 746
2  COc1cc2nc(SCC(=O)Nc3ccc(S(N)(=O)=O)cc3)nc(Nc3c(Cl)cc(/C=C/C#N)cc3Cl)c2cc1OC     < 1
3  COc1cc2nc([S+]([O-])CC(=O)Nc3cccc(S(N)(=O)=O)c3)nc(Nc3c(Cl)cc(/C=C/C#N)cc3Cl)c2cc1OC (centres undefined)     < 1

What does the record list as selectivity ratio for COc1cc2nc(SCC(=O)Nc3cccc(Cl)c3)nc(Nc3c(Cl)cc(/C=C/C#N)cc3Cl)c2cc1OC ?
> 1

====

Assay: in vitro
Settings: human, MT4 cells; MT4 cells infected with HIV1 3B K103N mutant
Description: Selectivity index, ratio of CC50 for cytotoxicity against human MT4 cells to EC50 for antiviral activity against HIV1 3B harbouring NNRTI K103N mutant infected in human MT4 cells
metric_name: selectivity ratio

> print(dat)
                                   compound   result
1  COc1ccccc1NC(=O)C[S+]([O-])c1nc(Nc2c(Cl)cc(/C=C/C#N)cc2Cl)c2cc(OC)c(OC)cc2n1 (stereo not given)    > 132
2  COc1cc2nc([S+]([O-])CC(=O)Nc3ccc(C#N)cc3)nc(Nc3c(C)cc(/C=C/C#N)cc3C)c2cc1OC (stereo not given)  > 21200

What does the record list as selectivity ratio for COc1cccc(NC(=O)C[S+]([O-])c2nc(Nc3c(Cl)cc(/C=C/C#N)cc3Cl)c3cc(OC)c(OC)cc3n2)c1 (stereo not given) ?
≥ 439

What does the record list as selectivity ratio for COc1cc2nc([S+]([O-])CC(=O)Nc3ccccc3F)nc(Nc3c(Cl)cc(/C=C/C#N)cc3Cl)c2cc1OC (stereo not given) ?
> 37

What does the record list as selectivity ratio for COc1ccc(NC(=O)CSc2nc(Nc3c(C)cc(/C=C/C#N)cc3C)c3cc(OC)c(OC)cc3n2)cc1 ?
> 302

====

Assay: Cytotoxicity against human MT4 cells assessed as reduction in cell viability incubated for 5 days by MTT assay
Type: cell-based
metric_name: CC50 at 120 h

Reference set (5 entries):
> print(dat)
                                   compound    metric.name    result
1  COc1cc2nc(SCC(=O)Nc3ccc(C#N)cc3)nc(Nc3c(C)cc(/C=C/C#N)cc3C)c2cc1OC  CC50 at 120 h  > 227 µM
2  COc1cc2nc(SCC(=O)Nc3cccc(S(N)(=O)=O)c3)nc(Nc3c(Cl)cc(/C=C/C#N)cc3Cl)c2cc1OC  CC50 at 120 h  > 194 µM
3  COc1cc2nc([S+]([O-])CC(=O)Nc3cccc(S(N)(=O)=O)c3)nc(Nc3c(Cl)cc(/C=C/C#N)cc3Cl)c2cc1OC (centres undefined)  CC50 at 120 h   67.8 µM
4  COc1cc2nc([S+]([O-])CC(=O)Nc3ccccc3C#N)nc(Nc3c(Cl)cc(/C=C/C#N)cc3Cl)c2cc1OC (centres undefined)  CC50 at 120 h  > 206 µM
5  COc1cc2nc(SCC(=O)Nc3cccc(Cl)c3)nc(Nc3c(Cl)cc(/C=C/C#N)cc3Cl)c2cc1OC  CC50 at 120 h  > 208 µM

What does the record list as CC50 at 120 h for COc1cc2nc(SCC(=O)Nc3ccc(C(F)(F)F)cc3)nc(Nc3c(C)cc(/C=C/C#N)cc3C)c2cc1OC ?
> 211 µM

What does the record list as CC50 at 120 h for COc1cc2nc([S+]([O-])CC(=O)Nc3ccc(C)cc3)nc(Nc3c(Cl)cc(/C=C/C#N)cc3Cl)c2cc1OC (centres undefined) ?
32.2 µM

What does the record list as CC50 at 120 h for Cc1ccnc2c1NC(=O)c1cccnc1N2C1CC1 [NEVIRAPINE] ?
> 15 µM

What does the record list as CC50 at 120 h for COc1cc2nc([S+]([O-])CC(=O)Nc3cc([N+](=O)[O-])ccc3F)nc(Nc3c(Cl)cc(/C=C/C#N)cc3Cl)c2cc1OC (centres undefined) ?
> 194 µM

What does the record list as CC50 at 120 h for COc1cc2nc(SCC(=O)Nc3ccc([N+](=O)[O-])cc3)nc(Nc3c(C)cc(/C=C/C#N)cc3C)c2cc1OC ?
> 219 µM

What does the record list as CC50 at 120 h for COc1cc2nc([S+]([O-])CC(=O)Nc3ccccc3F)nc(Nc3c(Cl)cc(/C=C/C#N)cc3Cl)c2cc1OC (centres undefined) ?
> 208 µM

What does the record list as CC50 at 120 h for O=C1Nc2ccc(Cl)cc2[C@@](C#CC2CC2)(C(F)(F)F)O1 [EFAVIRENZ] ?
> 6.34 µM

What does the record list as CC50 at 120 h for COc1cc2nc(SCC(=O)Nc3cc([N+](=O)[O-])ccc3F)nc(Nc3c(Cl)cc(/C=C/C#N)cc3Cl)c2cc1OC ?
> 199 µM

====

Assay: Cytotoxicity against human MT4 cells assessed as reduction in cell viability incubated for 5 days by MTT assay
Type: cell-based
metric_name: CC50 at 120 h

> print(dat)
                                   molecule     result
1  COc1cc2nc([S+]([O-])CC(=O)Nc3ccc(S(N)(=O)=O)cc3)nc(Nc3c(Cl)cc(/C=C/C#N)cc3Cl)c2cc1OC (stereo unspecified)   > 189 µM
2  COc1cc2nc([S+]([O-])CC(=O)Nc3ccccc3C(F)(F)F)nc(Nc3c(Cl)cc(/C=C/C#N)cc3Cl)c2cc1OC (stereo unspecified)   > 192 µM
3  COc1cc2nc([S+]([O-])CC(=O)Nc3cccc(Cl)c3)nc(Nc3c(Cl)cc(/C=C/C#N)cc3Cl)c2cc1OC (stereo unspecified)    68.9 µM
4  COc1cc2nc([S+]([O-])CC(=O)Nc3ccc([N+](=O)[O-])cc3)nc(Nc3c(C)cc(/C=C/C#N)cc3C)c2cc1OC (stereo unspecified)     189 µM
5  COc1cc2nc([S+]([O-])CC(=O)Nc3cccc(C#N)c3)nc(Nc3c(Cl)cc(/C=C/C#N)cc3Cl)c2cc1OC (stereo unspecified)  ≥ 70.3 µM

Now, please, on to the next molecule.
What does the record list as CC50 at 120 h for COc1cc2nc(SCC(=O)Nc3ccc(C(F)(F)F)cc3)nc(Nc3c(Cl)cc(/C=C/C#N)cc3Cl)c2cc1OC ?
> 197 µM

meta.source: ChEMBL document CHEMBL4312037
